Target: Bromodomain-containing protein 4 (Homo sapiens)
Experiment: Displacement of tetra-acetylated histone H4 peptide (1-21) from recombinant human N-terminal His-tagged BRD4 BD1 (44 to 170 residues) expressed in Escherichia coli incubated for 30 mins followed by further incubation with tetra-acetylated histone H4 peptide (1-21) for 30 mins by Alphascreen assay
MEASURED_METRIC: pIC50
Would you please state pIC50, meaning minus log10 of the concentration in mol/L, as a bare number?

*Q* Look up pIC50 of "COc1ccccc1S(=O)(=O)Nc1ccc2c3c(cc(-c4cnn(C5CC5)c4)nc13)C(=O)N2C" and report it.
*A* 7.78

*Q* Read off the recorded pIC50 for "COc1ccccc1S(=O)(=O)Nc1ccc2c3c(cc(NCCN4CCN(C)CC4)nc13)C(=O)N2C"
*A* 6.65

*Q* Name the recorded pIC50 of the item "COc1ccccc1S(=O)(=O)Nc1ccc2c3c(cc(NCC4CCOCC4)nc13)C(=O)N2C" in your answer.
*A* 6.30

---

Biological target: Bromodomain-containing protein 4 (Homo sapiens)
Test: Displacement of tetra-acetylated histone H4 peptide (1-21) from recombinant human N-terminal His-tagged BRD4 BD1 (44 to 170 residues) expressed in Escherichia coli assessed as protein activity at 2 uM incubated for 30 mins followed by further incubation with tetra-acetylated histone H4 peptide (1-21) for 30 mins by Alphascreen assay
MEASURED_METRIC: Activity (%)
Supply the numeric figure in %, leaving out any unit text.

Sample answers from the record:
CN1C(=O)c2cc(-c3cnn(C4CC4)c3)cc3c(NS(=O)(=O)c4ccc(Cl)cc4F)ccc1c23 :: 65.2
CN1C(=O)c2ccnc3c(NS(=O)(=O)c4ccc(Cl)cc4F)ccc1c23 :: 87.4
COc1ccc(Cl)cc1S(=O)(=O)Nc1ccc2c3c(cc(-c4cnn(C5CC5)c4)cc13)C(=O)N2C :: 64.9
CN1C(=O)c2cc(-c3ccoc3)cc3c(NS(=O)(=O)c4ccc(Cl)cc4)ccc1c23 :: 56.6

*Q* Look up and report measured Activity for this entry: "CN1C(=O)c2cc(-c3cnn(C4CC4)c3)cc3c(NS(=O)(=O)c4ccc(Cl)cc4Cl)ccc1c23"
*A* 61.8

*Q* Specify Activity for "CN1C(=O)c2cccc3c(NS(=O)(=O)c4c(Cl)cccc4Cl)ccc1c23" and stop.
*A* 91.1

*Q* Annotate the compound "COc1ccccc1S(=O)(=O)N(C)c1ccc2c3c(cccc13)C(=O)N2C" with its measured Activity.
*A* 90.4

---

Target: Bromodomain-containing protein 4 (Homo sapiens)
Assay: Displacement of tetra-acetylated histone H4 peptide (1-21) from recombinant human N-terminal His-tagged BRD4 BD1 (44 to 170 residues) expressed in Escherichia coli incubated for 30 mins followed by further incubation with tetra-acetylated histone H4 peptide (1-21) for 30 mins by Alphascreen assay
MEASURED_METRIC: pIC50
pIC50 (log units): -log10 of the concentration in mol/L.

CCCn1cc(-c2cc3c4c(ccc(NS(=O)(=O)c5ccc(Cl)cc5OC)c4c2)N(C)C3=O)cn1 :: 6.97

*Q* Provide only the value of recorded pIC50 for "COc1ccccc1S(=O)(=O)Nc1ccc2c3c(cc(-c4cnn(C)c4)nc13)C(=O)N2C"
*A* 7.90

*Q* // Input: "Cc1ccccc1NS(=O)(=O)c1ccc2c3c(cccc13)C(=O)N2C" . Output its pIC50 only.
*A* 4.81

*Q* For the compound "COc1ccccc1S(=O)(=O)Nc1ccc2c3c(cc(N[C@H](C)c4ccccn4)nc13)C(=O)N2C" , give its reported pIC50.
*A* 5.65

*Q* Please indicate pIC50 recorded for "CN1C(=O)c2cc(-c3cnn(C)c3)cc3c(NS(=O)(=O)c4ccc(Cl)cc4)ccc1c23"
*A* 6.46

---

Molecular target: Bromodomain-containing protein 9 (Homo sapiens) (UniProt Q9H8M2)
Sequence (whole entry): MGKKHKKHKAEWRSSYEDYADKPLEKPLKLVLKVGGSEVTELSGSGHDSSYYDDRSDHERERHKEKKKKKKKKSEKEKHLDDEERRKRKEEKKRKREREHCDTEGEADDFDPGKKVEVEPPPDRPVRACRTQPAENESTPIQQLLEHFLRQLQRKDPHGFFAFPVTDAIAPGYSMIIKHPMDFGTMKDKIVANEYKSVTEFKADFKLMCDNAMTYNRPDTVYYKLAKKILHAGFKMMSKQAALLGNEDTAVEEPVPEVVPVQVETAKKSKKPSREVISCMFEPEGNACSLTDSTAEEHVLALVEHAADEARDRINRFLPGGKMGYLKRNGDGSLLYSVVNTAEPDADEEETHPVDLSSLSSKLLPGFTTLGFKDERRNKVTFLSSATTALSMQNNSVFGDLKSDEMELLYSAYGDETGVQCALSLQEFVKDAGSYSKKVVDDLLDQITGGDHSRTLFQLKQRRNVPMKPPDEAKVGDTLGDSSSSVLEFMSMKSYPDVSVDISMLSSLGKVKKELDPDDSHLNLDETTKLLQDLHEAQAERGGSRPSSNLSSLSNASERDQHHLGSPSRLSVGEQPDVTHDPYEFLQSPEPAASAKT
Experiment: Binding affinity to BRD9 BD1 (unknown origin) assessed as change in melting temperature at 10 uM by SYPRO Orange based differential scanning fluorimetry
MEASURED_METRIC: ΔTm (°C)
API: value field is a number in °C; no unit string.

Illustrative cases are given below, each with its answer.
CN1C(=O)c2cccc3c(NCc4ccccc4)ccc1c23 :: -0.9
CC(Nc1ccc2c3c(cccc13)C(=O)N2C)c1ccccc1 (stereo not given) :: 4.33
CN1C(=O)c2cccc3c(S(=O)(=O)Nc4ccccc4)ccc1c23 :: 0.47
CN1C(=O)c2cccc3c(NS(=O)(=O)c4ccccc4)ccc1c23 :: 1.93

*Q* Return ΔTm for the following molecule: "CN1C(=O)c2cccc3c(NC(=O)c4ccccc4)ccc1c23"
*A* 4.1

---

Assay: Metabolic stability in rat liver microsomes assessed as intrinsic clearance measured per mg protein upto 60 mins by LC/MS-MS analysis
Assay type: ADME, Microsome
Conditions: read-out: CLH
MEASURED_METRIC: microsomal CLint

*Q* Please look at this compound and report its microsomal CLint: "COc1ccccc1S(=O)(=O)Nc1ccc2c3c(cc(-n4cnc(C)c4)nc13)C(=O)N2C"
*A* 147 µL/min/mg

---

Assay: Metabolic stability in rat liver microsomes assessed as half life measured upto 60 mins by LC/MS-MS analysis
Assay type: ADME, Microsome
MEASURED_METRIC: half-life (min)
Record the value in min, omitting the unit from your answer.

*Q* Indicate its recorded half-life; the compound in question is "COc1ccccc1S(=O)(=O)Nc1ccc2c3c(cc(-n4cnc(C)c4)nc13)C(=O)N2C"
*A* 9.45

---

Target: Bromodomain-containing protein 4 (Homo sapiens)
Assay: Binding affinity to recombinant human N-terminal His-tagged BRD4 BD1 (44 to 170 residues) expressed in Escherichia coli assessed as change in melting temperature at 10 uM by SYPRO Orange based differential scanning fluorimetry
Category scheme (ΔTm): low group: < 4 °C; middle group: ≥ 4 °C and < 5 °C; high group: ≥ 5 °C

COc1ccccc1S(=O)(=O)N(C)c1ccc2c3c(cccc13)C(=O)N2C :: low group
CN1C(=O)c2cccc3c(NC(=O)c4ccccc4)ccc1c23 :: low group
CCN1C(=O)c2cccc3c(NS(=O)(=O)c4ccc(Cl)cc4)ccc1c23 :: high group
CN1C(=O)c2cccc3c(NS(=O)(=O)c4ccc(Cl)cc4)ccc1c23 :: high group
Cc1cc(F)ccc1S(=O)(=O)Nc1ccc2c3c(cccc13)C(=O)N2C :: middle group

*Q* Bin this entry: "CN1C(=O)c2cccc3c(NS(=O)(=O)c4cccc5cccnc45)ccc1c23"
*A* middle group

*Q* Into which category would you place "CN1C(=O)c2cccc3c(S(=O)(=O)Nc4ccccc4)ccc1c23" ?
*A* low group

---

Target: Bromodomain-containing protein 4 (Homo sapiens)
Assay: Displacement of tetra-acetylated histone H4 peptide (1-21) from recombinant human N-terminal His-tagged BRD4 BD2 (349 to 460 residues) expressed in Escherichia coli incubated for 30 mins followed by further incubation with tetra-acetylated histone H4 peptide (1-21) for 30 mins by Alphascreen assay
MEASURED_METRIC: IC50 (nM)
Entry rule: numbers only, all in nM.

COc1ccccc1S(=O)(=O)Nc1ccc2c3c(cc(-c4cnn(C5CC5)c4)cc13)C(=O)N2C :: 238
COc1ccccc1S(=O)(=O)Nc1ccc2c3c(cc(NCCN4CCN(C)CC4)nc13)C(=O)N2C :: 1520
COc1ccccc1S(=O)(=O)Nc1ccc2c3c(cc(NCC4CCN(C)CC4)nc13)C(=O)N2C :: 1280
CN1C(=O)c2cccc3c(NS(=O)(=O)c4cccnc4)ccc1c23 :: 13700
COc1ccccc1S(=O)(=O)Nc1ccc2c3c(cc(-c4ccc(C)o4)cc13)C(=O)N2C :: 47000

Here's the next entry for you.
*Q* Recall and state the measured IC50 for "Cc1cc(/N=N/c2ccc(S(=O)(=O)Nc3ccc(C#N)cc3)cc2)cc(C)c1O" .
*A* 7070

Recorded values, source ChEMBL document CHEMBL4354830.
